Assay: Cell viability for BIA and analogues, DU145 cell line
Type: cell-based
Details: human; DU145, 10 uM
Protocol: The compound prepared in Example 15 was treated with HT1080 fibrosarcoma cell line at 5 μM and 10 μM and cell viability was measured. In addition, the compound prepared in Example 15 on the DU145 prostate cancer cell line was treated with 10 μM, 20 μM, and 30 μM and cell viability was measured (see Table 2, Table 3).
Please respond with reported viability at 10 µM for every item in the list.
# number then unit; no other words

Check out these entries, answers already filled in.
O=C(/C=C/c1cccc([N+](=O)[O-])c1)c1ccccc1 : 81%
Nc1ccccc1C(=O)/C=C/c1ccccc1 : 78.7%

Please find the next molecule below.
### Prompt Please give the measured viability at 10 µM for this molecule: CC(C)(C)OC(=O)Nc1cccc(/C=C/C(=O)c2ccccc2N)c1
### Response 82.2%

* * *

Assign viability at 10 µM to each entry below.
Test: Cell viability for BIA and analogues, HT1080 cell line
Format: cell-based
Settings: human, HT1080 fibrosarcoma cells, HT1080, 10 uM
Give bare numbers, in %.

N#Cc1cccc(/C=C/C(=O)c2ccccc2N)c1 : 7.14
Nc1ccccc1C(=O)/C=C/c1ccc(C(F)(F)F)cc1 : 15.4
Nc1ccccc1C(=O)/C=C/c1cccc(Cl)c1 : 14.4
COc1ccccc1C(=O)/C=C/c1cccc([N+](=O)[O-])c1 : 96.6
Nc1ccccc1C(=O)/C=C/c1cccc(C(F)(F)F)c1 : 11.9
Nc1ccccc1C(=O)/C=C/c1ccc([N+](=O)[O-])cc1 : 54.9

Batch request: viability at 10 µM for each of the following compounds.
1. Nc1ccccc1C(=O)/C=C/c1cccc(F)c1
2. O=C(/C=C/c1cccc([N+](=O)[O-])c1)c1ccccc1

### Response
[11.8, 57.8]
